# study_system: human CYP2D6, CYP2D6 (gene 1565)
# experiment_notes: NVS_ADME_hCYP2D6: NovaScreen (NVS) CYP450-related Enzyme Activity (ADME) Assay for human CYP2D6 (AID 2283107)
Activity calls are given as the source filed them. Rule for the calls: active = hit-call score of the fitted dose curve at least 0.9, where 1 is the maximum; inconclusive = response in the unintended direction; inactive = score below 0.9.
The reply should be one of these categories: true (1) for active, false (0) for inactive

{"compound": "CCCC1COC(Cn2cncn2)(c2ccc(Cl)cc2Cl)O1 (stereo not given)", "label_value": "true (1)"}
{"compound": "N#Cc1cc(Br)c(O)c(Br)c1", "label_value": "false (0)"}
{"compound": "CN(C)C(=S)SSC(=S)N(C)C", "label_value": "true (1)"}

**Query** Given CCOC(=O)CC(SP(=S)(OC)OC)C(=O)OCC (stereo not given) , state the outcome it received in this test.
**Result** true (1)

**Query** Given "CS/C(C)=N/OC(=O)N(C)SN(C)C(=O)O/N=C(\C)SC" , state the outcome it received in this test.
**Result** true (1)

* * *

# study_system: human Acetylcholinesterase (AChE), ACHE (gene 43)
# experiment_notes: NVS_ENZ_hAChE: NovaScreen (NVS) Enzymatic Assay for human Acetylcholinesterase (AChE) (AID 2283129)
Inconclusive results are not listed. Activity calls are given as the source filed them. The calls were made as follows: active = hit-call score of the fitted dose curve at least 0.9, where 1 is the maximum; inconclusive = response in the unintended direction; inactive = score below 0.9.
The reply should be one of these categories: active, inactive

**Query** Given "COC(=O)C=C(C)OP(=O)(OC)OC" , state the outcome it received in this test.
**Result** active

**Query** Given "O=C(O)c1nc(Cl)ccc1Cl" , state the outcome it received in this test.
**Result** inactive

**Query** Given "COP(=S)(OC)Oc1nc(Cl)c(Cl)cc1Cl" , state the outcome it received in this test.
**Result** inactive

**Query** Given "CNC(=S)S" , state the outcome it received in this test.
**Result** active

* * *

# Read-out: Cytochrome P450 (CYP1A2), CYP1A2 (gene 1544)
# experiment_notes: LTEA_HepaRG_CYP1A2: Life Technologies and Expression Analysis (LTEA) Assay for Cytochrome P450 (CYP1A2) using HepaRG (AID 2283479);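 for AC50: TaqMan qRT-PCR transcript level normalized to ACTB GAPDH and POLR2A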
# run_parameters: mRNA level, 48 h; actives raise or lower the signal
Active and inactive are the calls of the source. Rule for the calls: active = hit-call score of the fitted dose curve at least 0.9, where 1 is the maximum; inactive = score below 0.9.
measure: AC50

{"compound": "CCON=C(CC)C1=C(O)CC(c2c(C)cc(C)cc2C)CC1=O (stereo unspecified)", "endpoint_value": "inactive"}
{"compound": "O=C(Nc1ccccc1)Nc1ccnc(Cl)c1", "endpoint_value": "25.8 µM (active)"}
{"compound": "Cc1ccc(-c2c(Cl)nc(C#N)n2S(=O)(=O)N(C)C)cc1", "endpoint_value": "inactive"}
{"compound": "C=CCC1=C(C)[C@@H](OC(=O)[C@@H]2[C@@H](C=C(C)C)C2(C)C)CC1=O", "endpoint_value": "inactive"}
{"compound": "C=CC1(C)OC(=O)N(c2cc(Cl)cc(Cl)c2)C1=O (stereo unspecified)", "endpoint_value": "18.8 µM (active)"}

**Query** Param item = "CC(C)(C)c1ccc(CSc2cnn(C(C)(C)C)c(=O)c2Cl)cc1" ; retrieve measured AC50.
**Result** 2.36 µM (active)

* * *

# study_system: Thyroid hormone receptor alpha (Rattus norvegicus) + Thyroid hormone receptor beta (Rattus norvegicus) (UniProt P18113+P63059)
# experiment_notes: TOX21_TR_LUC_GH3_Antagonist_Followup: Tox21 GH3 Thyroid Hormone Receptor Antagonism Luciferase Follow-Up Assay (AID 2283942)
Results filed as inconclusive are left out. Calls of active or inactive are those of the source. Rule for the calls: active = hit-call score of the fitted dose curve at least 0.9, where 1 is the maximum; inconclusive = response in the unintended direction; inactive = score below 0.9.
The reply should be one of these categories: 1 = active, -1 = inactive

{"smiles_representation": "CN(C)C(=S)SSC(=S)N(C)C", "label_value": 1}

**Query** Given "COC(=O)N(OC)c1ccccc1COc1ccn(-c2ccc(Cl)cc2)n1" , state the outcome it received in this test.
**Result** 1

**Query** Given "CO/C=C(/C(=O)OC)c1ccccc1Oc1cc(Oc2ccccc2C#N)ncn1" , state the outcome it received in this test.
**Result** 1

**Query** Given "CCCCNC(=O)n1c(NC(=O)OC)nc2ccccc21" , state the outcome it received in this test.
**Result** -1
